system: Fusarium graminearum; assay: Antifungal activity against Fusarium graminearum measured after 24 to 48 hrs by turbidimetry; assay type: functional; conditions: time 24-48 hrs
readout: MIC (µM)
Give bare numbers, in µM.

CC1(C)CC[C@]2(C)CC[C@]3(C)[C@H]4CC=C5C(=CCC(=O)C5(C)C)[C@]4(C)CC[C@@]3(C)[C@@H]2C1 ... 118
COC(=O)N(OC)c1ccccc1COc1ccn(-c2ccc(Cl)cc2)n1 [PYRACLOSTROBIN] ... 1.01

# next molecule below
# input Param readout = MIC; param system = Fusarium graminearum; param query = "CC1(C)CC[C@]2(C)CC[C@]3(C)[C@H]4CC=C5[C@@H](CC(C=O)=C(O)C5(C)C)[C@]4(C)CC[C@@]3(C)[C@@H]2C1" ; response: value
# output 110
